Here, each record is paired with measured viability, T/C data.
system: 855422-203-R-J1-PDC spheroids with HUVEC/MSC, viability; test: Anticancer human tumor 855422-203-R-J1-PDC patient-derived bladder carcinoma cell line growth inhibition [PI3K]; conditions: second compound 0.0316 µM; first compound 0.1 µM; hits give low values
QUANTITY: viability, T/C (%)

[[record]]
compound = "C#Cc1c(F)ccc2cc(O)cc(-c3ncc4c(N5CC6CCC(C5)N6)nc(OCC56CCCN5CC(F)C6)nc4c3F)c12 (configuration not stated) + COc1c(OCCCN2CCOCC2)ccc2c3n(c(=NC(=O)c4cnc(N)nc4)nc12)CCN3"
measured_result = 65.4

[[record]]
compound = "CC(=O)c1c(C)c2cnc(Nc3ccc(N4CCNCC4)cn3)nc2n(C2CCCC2)c1=O + Cc1nc(NC(=O)N2CCCC2C(N)=O)sc1-c1ccnc(C(C)(C)C(F)(F)F)c1"
measured_result = 85.3

[[record]]
compound = "C#Cc1c(F)ccc2cc(O)cc(-c3ncc4c(N5CC6CCC(C5)N6)nc(OCC56CCCN5CC(F)C6)nc4c3F)c12 (configuration not stated) + Cc1nc(NC(=O)N2CCCC2C(N)=O)sc1-c1ccnc(C(C)(C)C(F)(F)F)c1"
measured_result = 92.8

[[record]]
compound = "CC(C)NCC(C(=O)N1CCN(c2ncnc3c2C(C)CC3O)CC1)c1ccc(Cl)cc1 (configuration not stated) + CC(Nc1ccc2c(c1)OCCn1cc(N3C(=O)OCC3C(F)F)nc1-2)C(N)=O"
measured_result = 70

[[record]]
compound = "CC(C)n1nc(-c2ccc3oc(N)nc3c2)c2c(N)ncnc21 + COc1c(OCCCN2CCOCC2)ccc2c3n(c(=NC(=O)c4cnc(N)nc4)nc12)CCN3"
measured_result = 7.16

[[record]]
compound = "CC1(C)CCC(CN2CCN(c3ccc(C(=O)NS(=O)(=O)c4ccc(NCC5CCOCC5)c([N+](=O)[O-])c4)c(Oc4cnc5[nH]ccc5c4)c3)CC2)=C(c2ccc(Cl)cc2)C1 + CC(Nc1ccc2c(c1)OCCn1cc(N3C(=O)OCC3C(F)F)nc1-2)C(N)=O"
measured_result = 82

[[record]]
compound = "CC1(C)CCC(Nc2ncc(C(F)(F)F)c(-c3c[nH]c4c(P(C)(C)=O)c(C#N)ccc34)n2)CN1 (configuration not stated) + CC(Nc1ncnc2nc[nH]c12)c1cc2cccc(Cl)c2c(=O)n1-c1ccccc1"
measured_result = 24.1


----------
system: 855422-203-R-J1-PDC spheroids with HUVEC/MSC, viability; test: Anticancer human tumor 855422-203-R-J1-PDC cell line growth inhibition [PI3K]; conditions: second compound 0.0316 µM; first compound 0.1 µM; hits give low values;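 further: agents incubated with spheroids for one week before read-out; 100% = DMSO vehicle-treated control wells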
Classify: True when viability, T/C is strictly less than 80%; False when viability, T/C is not.

[[record]]
molecule = "CC1(C)CCC(CN2CCN(c3ccc(C(=O)NS(=O)(=O)c4ccc(NCC5CCOCC5)c([N+](=O)[O-])c4)c(Oc4cnc5[nH]ccc5c4)c3)CC2)=C(c2ccc(Cl)cc2)C1 + COc1c(OCCCN2CCOCC2)ccc2c3n(c(=NC(=O)c4cnc(N)nc4)nc12)CCN3"
discrete_label = "True"

[[record]]
molecule = "CC(C)n1nc(-c2ccc3oc(N)nc3c2)c2c(N)ncnc21 + Cc1nc(NC(=O)N2CCCC2C(N)=O)sc1-c1ccnc(C(C)(C)C(F)(F)F)c1"
discrete_label = "True"

[[record]]
molecule = "CCN1CCN(Cc2ccc(Nc3ncc(F)c(-c4cc(F)c5nc(C)n(C(C)C)c5c4)n3)nc2)CC1 + COc1c(OCCCN2CCOCC2)ccc2c3n(c(=NC(=O)c4cnc(N)nc4)nc12)CCN3"
discrete_label = "True"

[[record]]
molecule = "CNC(=O)c1ccc(N2C(=S)N(c3ccc(C#N)c(C(F)(F)F)c3)C(=O)C2(C)C)cc1F + Cc1nc(NC(=O)N2CCCC2C(N)=O)sc1-c1ccnc(C(C)(C)C(F)(F)F)c1"
discrete_label = "False"

[[record]]
molecule = "C[C@@H](NC(=O)c1ncnc(N)c1Cl)c1ncc(C(=O)Nc2cc(C(F)(F)F)c(Cl)cn2)s1 + COc1c(OCCCN2CCOCC2)ccc2c3n(c(=NC(=O)c4cnc(N)nc4)nc12)CCN3"
discrete_label = "True"

[[record]]
molecule = "CCN1CCN(Cc2ccc(Nc3ncc(F)c(-c4cc(F)c5nc(C)n(C(C)C)c5c4)n3)nc2)CC1 + CC(Nc1ncnc2nc[nH]c12)c1cc2cccc(Cl)c2c(=O)n1-c1ccccc1"
discrete_label = "False"

[[record]]
molecule = "CC(Cn1ccc(-c2ccc(C#N)c(Cl)c2)n1)NC(=O)c1cc(C(C)O)[nH]n1 (stereo unspecified) + CC(Nc1ccc2c(c1)OCCn1cc(N3C(=O)OCC3C(F)F)nc1-2)C(N)=O"
discrete_label = "False"

[[record]]
molecule = "CCCS(=O)(=O)Nc1ccc(F)c(C(=O)c2c[nH]c3ncc(-c4ccc(Cl)cc4)cc23)c1F + COc1c(OCCCN2CCOCC2)ccc2c3n(c(=NC(=O)c4cnc(N)nc4)nc12)CCN3"
discrete_label = "True"

[[record]]
molecule = "CC(C)NCC(C(=O)N1CCN(c2ncnc3c2C(C)CC3O)CC1)c1ccc(Cl)cc1 (stereo unspecified) + COc1c(OCCCN2CCOCC2)ccc2c3n(c(=NC(=O)c4cnc(N)nc4)nc12)CCN3"
discrete_label = "True"

[[record]]
molecule = "CC(=O)c1c(C)c2cnc(Nc3ccc(N4CCNCC4)cn3)nc2n(C2CCCC2)c1=O + COc1c(OCCCN2CCOCC2)ccc2c3n(c(=NC(=O)c4cnc(N)nc4)nc12)CCN3"
discrete_label = "True"

